IC50: recorded values
- Test system: Hela cells
- ASSAY_INFO: MTT toxicity to tumor cells, under light and in the dark
- Type: cell-based
- CONDITION_INFO: Homo sapiens, in the dark

Here are 2 compounds together with their reported answers.
COc1ccc(C(=O)C(=O)c2ccc(OC)cc2)cc1 [BJMU-213] = 6.4 mM
O=C(C(=O)c1ccccc1)c1ccccc1 [BJMU-209] = 8.2 mM

Query compound follows.
Query: Reported IC50 for CCC(=O)C(=O)CC [BJMU-201] : what is it?
Result: 0.0599 mM
